Tested on: Malme-3M
assay details: NCI tumour cell line growth inhibition, 48 h
Calls of active or inactive are those of the source. Rule as the data show it: active = GI50 up to about 1.1 µM and inactive = higher.
Thanks in advance; please answer with one of these: TRUE (active), FALSE (inactive)

Solved cases (5 shown):
CNC(=O)OCc1nc(N=[N+]=[N-])n(C)c1COC(=O)NC | FALSE
CCn1c(-c2cc(OC)cc(OC)c2)nc2c1C(=O)c1ccccc1C2=O | FALSE
CC1[C@@H]2CC=C3C4CCC5Cc6nc7c(nc6C[C@@]5(C)C4CC(=O)[C@]32CO[C@@]1(O)C(O)CC(C)(C)O)CC1CCC2C3=C[C@H]4O[C@@]5(O[C@@](C)(CO)C[C@@H]5O)C(C)[C@@]4(O)[C@]3(C)[C@@H](O)CC2[C@]1(C)C7 (stereo partly specified) | TRUE
Cc1cc(S(=O)(=O)/N=C2\NCCN2Cc2ccccc2)c(S)cc1Cl | FALSE
CCOC(=O)CCC(NC(=O)c1ccc(CNc2nc3cc(N)cc(N)c3nc2-c2ccccc2)cc1)C(=O)OCC (stereo unspecified) | FALSE

Just curious, what result did Cc1nc2ccc(S(=O)(=O)Nc3ccccc3Cl)cc2c(=O)n1NC(=O)CNc1ccccc1Cl get here?
FALSE

Just curious, what result did N#C/C(=C/NC(=S)Nc1ccc(S(N)(=O)=O)cc1)C(N)=O get here?
FALSE

Just curious, what result did CCc1ccccc1N1CCN(C(=O)c2cc(OC)c(OC)c(OC)c2)CC1 get here?
TRUE

Just curious, what result did c1ccc2c(c1)Oc1cccc3cccc-2c13 get here?
FALSE

Just curious, what result did CO[C@H]1C=C[C@@]23c4cc5c(cc4CO[C@]2(O)CN(C)[C@H]3C1)OCO5 get here?
FALSE

Just curious, what result did CCN(CC)C(=O)c1cc(OC(C)C)ccc1-c1c(C)cc(OC(C)C)c(OC)c1OC get here?
FALSE

Just curious, what result did COc1ccc(-c2c3c(n(C4OC(CO)C(O)C(O)C4O)c(=S)c2C#N)CCC3)cc1 (stereo unspecified) get here?
FALSE

Just curious, what result did CCOC(=O)c1nc2ccccc2nc1Nc1ccc(OC)cc1 get here?
FALSE

Just curious, what result did COc1cc([C@@H]2c3cc4c(cc3[C@@H](c3c(O)cc(O)c5c3O[C@H](c3ccc(O)c(O)c3)[C@@H](O)C5)[C@H]3COC(=O)[C@H]23)OCO4)cc(OC)c1O get here?
FALSE

Just curious, what result did O=C(O)CN(c1ccccc1)S(=O)(=O)c1ccc([N+](=O)[O-])cc1 get here?
FALSE

Just curious, what result did CC(C)(C)C(=O)Cc1cc2c(cc1C(=O)O)S(=O)(=O)NC(C(C)(C)C)=C2 get here?
FALSE

Just curious, what result did Cc1cc(-c2nc3cccc(F)c3s2)ccc1N get here?
FALSE

Just curious, what result did COC(=O)c1sc2ncc3c(c2c1N)CCCCCC3 get here?
FALSE

Just curious, what result did COC(=O)c1c(C)[nH]c2c1C(=O)C(=O)c1nc(C)c(C)nc1-2 get here?
FALSE

Just curious, what result did Nc1c(-c2ccc(-c3c(N)[n+]([O-])c4ccccc4[n+]3[O-])cc2)[n+]([O-])c2ccccc2[n+]1[O-] get here?
FALSE

Just curious, what result did COc1ccc(/C=C2\N=C3NC(=O)C(N4CCCCC4)=C(N)N3C2=O)cc1 get here?
FALSE

Each recorded value in this set is attributed to ChEMBL document CHEMBL1201862.
